pIC50 values for the molecules below.
biological target: Human immunodeficiency virus type 1 protease (Human immunodeficiency virus 1, UniProt Q72874)
Remember the convention: pIC50 equals -log10 of concentration in molar.

Some molecules with known pIC50 results, for comparison:
CC(C)[C@@H]1[C@H](OC(=O)N[C@@H](Cc2ccccc2)[C@H](O)CN2CCN(C3CC(c4ccccc4)C3)C[C@H]2C(=O)NC(C)(C)C)CCS1(=O)=O (some centres undefined)
8.42
CC(C)[C@@H]1[C@H](OC(=O)N[C@@H](Cc2ccccc2)[C@H](O)CN2CCN(C3CCSC3)C[C@H]2C(=O)NC(C)(C)C)CCS1(=O)=O (some centres undefined)
8.08
CC(C)[C@@H]1[C@H](OC(=O)N[C@@H](Cc2ccccc2)[C@H](O)CN2CCN(C3CCOCC3)C[C@H]2C(=O)NC(C)(C)C)CCS1(=O)=O
7.46

# evaluate next
Per the record, CC(C)[C@@H]1[C@H](OC(=O)N[C@@H](Cc2ccccc2)[C@H](O)CN2CCN(C3Cc4ccccc4C3)C[C@H]2C(=O)NC(C)(C)C)CCS1(=O)=O has pIC50 of 8.28
